System: secretion of TNF-α from LPS-stimulated human monocytes
Experiment: LPS-induced TNF-alpha production in human THP-1 cell line
Format: cell-based
Details: LPS-stimulated human monocytes (THP-1), 4 hr; read-out: EC50 for inhibition of TNF-α secretion
pEC50: −log10 of the molar value.
endpointLabel: pEC50

- CONC(=O)c1ccc(C)c(Nc2nc(NCc3cccc(C)c3)nc(N[C@H](C)C(C)(C)C)n2)c1 [Compound 12]: 6.91

A = CONC(=O)c1ccc(C)c(Nc2nc(NCC3CCCC(CN)C3)nc(NC3CCCCC3)n2)c1 (stereo not drawn) [Compound 11]
B = CONC(=O)c1ccc(C)c(Nc2nc(NCC3CCCC(CN)C3)nc(NC3CCCCC3C)n2)c1 (stereo not drawn) [Compound 10]
Higher pEC50 between A and B ? Respond with the label that goes with your answer. A
